Where do the numbers come from? From paper PMC10487316.

Biological target: MDM2 (1–125) protein (Homo sapiens)
Sequence (Q00987 1-125): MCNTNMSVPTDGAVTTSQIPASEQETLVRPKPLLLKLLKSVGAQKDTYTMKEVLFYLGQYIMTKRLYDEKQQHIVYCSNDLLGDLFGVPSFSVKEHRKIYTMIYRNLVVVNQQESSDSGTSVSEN
Where a SMILES comes first, the peptide text is derived from it. [ ]: non-standard residue; d: D form.
reportedProperty: Kd (nM)
# number only, unit nM dropped from output

Lab book: Kd of CC(=O)N[C@H](CC(C)C)C(=O)N[C@H](C(=O)N[C@@H](Cc1ccccc1)C(=O)N[C@@H](CCC(=O)O)C(=O)N[C@@H](CCC(=O)O)C(=O)N[C@@H](Cc1ccc(O)cc1)C(=O)N[C@@H](Cc1c[nH]c2ccccc12)C(=O)N[C@@H](C)C(=O)N[C@@H](CCC(N)=O)C(=O)N[C@@H](CC(C)C)C(=O)N[C@H](C(=O)N[C@@H](CO)C(N)=O)[C@@H](C)O)[C@@H](C)O [MP-191] (Ac-[dL]TFEEYWAQLTS-NH2) noted as 27
